Data provenance is patent US20250282752A1.

experiment: Rat pharmacokinetic study; format: in vivo; details: rat, blood; rats
PROPERTY MEASURED: half-life (h)
Output spec: scalar in h, unitless text.

Ask: Would you kindly share the measured half-life for C#Cc1cccc(Nc2ncnc3cc(OC)c(O[C@@H]4CCN(C)CC4(F)F)cc23)c1F [fumarate crystal form A] ?
Reply: 7.4
